method notes: Maximal achievable bioavailability in rat liver microsomes
Type: ADME, Microsome
test context: read-out: Max Achievable Bioavailability
# label = label 1 if Fh >= 10% else label 0

>>> cat("CC(C(=O)NCc1cc(F)cc(F)c1)C(=O)NC1C(=O)N(C)c2ccccc2-c2ccccc21 (stereo unspecified)")
"label 0"
>>> cat("C[C@H](OC(=O)NCC(F)(F)C(F)(F)F)C(=O)N[C@@H]1C(=O)N(C)c2ccccc2-c2ccccc21")
"label 1"
>>> cat("CC(C(=O)NCC1CC1)C(=O)NC1C(=O)N(C)c2ccccc2-c2ccccc21 (stereo unspecified)")
"label 1"
>>> cat("CC(C(=O)NC1C(=O)N(C)c2ccccc2-c2ccccc21)C(=O)NC(C)(C)c1ccccc1 (stereo unspecified)")
"label 0"
>>> cat("CC(C(=O)NCC(F)(F)C(F)(F)F)C(=O)N[C@@H]1C(=O)N(C)c2ccccc2-c2ccccc21 (mixture of isomers)")
"label 1"
>>> cat("CC(C(=O)NCC(F)(F)F)C(=O)NC1C(=O)N(C)c2ccccc2-c2ccccc21 (stereo unspecified)")
"label 1"

Values were extracted from ChEMBL document CHEMBL1137506.
